Assay: melting temperature (DSF); higher = more thermostable
Outcome measure: melting temperature (C)
Numeric answer only, unit C assumed.

STRNQEPTLQSIEAARGPYEIATQSVPPAVNTGFGGGTIYYPATTGAGKFGAVALSPGYMEKEYSFSWLGTRLASQGFVVFIINTQNSEEFPSARTDELLASLNYLTQTSEVRDRVDPNRLAVMGHSMGGGAALEAAEKNQSLRAVISMTPWNIKTTYSDIKTPTLIIGAQYDNIAPVHDHAQPSYASLPNDLAKSYLELRNGNHFSPNMENTAIARSSTVWLKRFVDGDTRYNKFICPGPTVGDEFNIVQSNCPIL [DP079]
60.4

# next sequence below
// query Data request, read-out melting temperature, for AENPYQRGPDPTLAALAASAGPYPIMETVVGSAEVTNFGGASIYYPAGTADGTFGGVAVTPGFLGPRSTMEWVARRVASHGFVVINIDTLERNDTPPLRARQMLAALDYLTGASAVRDRVDPTRLAVMGHSMGGGGSLQASRQRPQLKAAVPLTPWSNDKDFSADVVPTLIIGAELDDTAPVAEHAEPFFESIAAARKAYLELNDAEHRAPIRTNETIGTYSVAWLKRFVDDDTRYEQFLCPPPAPSAAIEEFRGTCPSS [TEP106]
// result 41.5

---

Test: PET hydrolysis, aromatic products released after 48 h (umol product/mg enzyme); higher = more PET depolymerization activity
Details: substrate: cryPow; 40 °C; pH 4.5
Outcome measure: PET hydrolysis

// query Data request, read-out PET hydrolysis, for MRPGRVCPDSCGCRPSSRRKDATIVQQLRNETIGSPSPHRAPRRFRPRLVRAGLAALLAAGGLFTAQSGSAGAAQNPYERGPAPTVSSIEAPRGPYAVSETRVSSLGVTGFGGGTLYYPTTTRDGTFGAVAISPGYGGTQSSISWLGPRLASQGFVVFTIDTLSTLDQPAGRGGQLLAALDYLTQRSSVRDRVDSGRLGVMGHSMGGGGSLEAAKSRPALQAAIPLTGWNLDKTWQELRTPTLVVGADGDTIAPVSSHSEPFYESLAGSLDKAYLELNGASHFTPNSSNTTIAKYSVSWLKRFIDNDLRYEQFLCPLPRPGATIEEYRGNCPHTS [TEP099]
// result < 3

---

Test: PET hydrolysis, aromatic products released after 48 h (umol product/mg enzyme); higher = more PET depolymerization activity
Conditions: substrate: cryPow; 60 °C; pH 5.5
Measured PET hydrolysis of individual entries

Field: example entries. Status: answers known.
DEIGQAPTSSNITGNGSFSVATYNISSLVSGFGGGVAYYPTTSGRYPVIAVSPGFTARWSSISWIGPRLASWGFVVVGIETNSIYDQPGSRGSQLLAALNWAVNSAPSSVRDRVDGSRRGVAGHSMGGGGTLEALAADTTGLVKAGVPIAPWNTDTTWGGLNEAVQIVGGESDTIAPVSSHSIPFYSTLGGPKSYVELNGASHFFPQTSNSTLSRALVSWFKRYLNNDARFTPFTCGYSGLSISDFRSNNC [ESM144]
< 3
AQENPYERGPAPTAQNITEDGPFAYATATVPAQSGFAGGAIYYPTDTSQGTFGAVAAVPGFLTPVDDVAWMGPRLASHGFVVFTIEPNSRFEFPSGRAAALKAGLTYLTQSSAVRDRVDPTRLAVAGHSMGGGAALEAALKDPNLKAAVALQPWHTGVNFSTVNVPSMIVGAENDPIASPASHAEPFYEQIPAASEKAYLNLAGVGHEVGGVVTNDTQSSMMLTWLKRYVDNDTRYEPFMCPGPSGSSVLEYRGTCPG [TEP170]
< 3
AGNPYQRGPDPTLASVAASRGTFATAQVSVPAGNGFNGGTIYYPTDSSQGTWGAVAIVPGYTALFANEEAWMGPWLASFGFVVIGIETNSRTDFDTARGTQLLAALDYLTQKSPVRDRVDSARLGVIGHSMGGGGVVYATEHRPSLKAAVALAPFSPSQDMSTDHVPTMVMGGQNDTVVTPSYLDGLYATMPASTQSDFVQLAGADHVAYTHPNTTEMRLLIPWLKIFLDDDTRYTQFLCPLMDSTGVSAYHSKCPYVPPGGSTSTPTPTPTITPTPPPSGACSATYRTVNSWSGGYQGEVTVTAGDAAINGWTVRWNLGGGQTVTQVWNGTLSTSGSTATVTNASYNGSLQASASTTFGFLANGTPSTPAITCTSP [TEP114]
9
MAADNPYQRGPNPTSASVAASRGTFATAELSVPRGNGFGGGKIYYPTDTTQGTFGAIAIVPGYTATWAAEGAWMGHWLASFGFVVIGIDTNSRNDNDTARGTQLLAALDYLTQRSSVRGRVDAKRLAVMGHSMGGGGALVAARQRPSLKAAVGLAPFKPSGPPSADRVPTMVIAGQRDGTVTPSYVDGLYRAIPAGTEKAYLEFAGAGHAFPTRPNPLQMRLVIPWLKSFTDHDTRYHQFLCPLKDRTGVTAYRSTCPLVAPGARD [TEP041]
< 3

// query Data request, read-out PET hydrolysis, for ANPYERGPDPTLASVEATSGTFAYASLSVSSGNGFGGGTIYYPTSTTDGTFAGIVTCPGFTNSGSSMAWFGKVLASQGFVTLVMNPKSNLDFPDARATQMLAALDWLTNSSSVKTRIDATRLGVLGQSMGGGATLKASKTRPSLKASFATAPYNSDKDWSTNTVPQFLFGMQNDTTAAVTNHALKFYNSLPATTPKIYAELRGAGHSTATSPNTSIRRYAVSFMKRNLDNDTRYSQFLCPGPTITSSSPLSAFMSNCLF [DP080]
// result < 3
